Data origin: ChEMBL document CHEMBL5244278

- experimentalProtocol: Clearance in rat liver microsomes
- Type: ADME, Microsome
Provide the recorded CLhep predicted for the entries that follow.
API: value field is a number in mL/min/kg; no unit string.

Q: Record request: CLhep predicted value, item `O=C(NCCS(=O)(=O)c1ccc(C(F)(F)F)cn1)c1ccc(B2C=CC=CN2)cc1`
Result: 53

Q: Entry to check: `COc1ccccc1N1CCN(CCCCNC(=O)c2ccc(B3C=CC=CN3)cc2)CC1`
Result: 53

Q: Entry to check: `O=C(NCCS(=O)(=O)c1ccc(C(F)(F)F)cn1)c1ccc(-c2ccccc2)cc1`
Result: 39

Q: Entry to check: `COc1ccccc1N1CCN(CCCCNC(=O)c2ccc(-c3ccccc3)cc2)CC1`
Result: 51

Q: Entry to check: `O=C(Cc1ccc(B2C=CC=CN2)cc1)Nc1cc(C2CC2)[nH]n1`
Result: 48

Q: Entry to check: `O=C(Cc1ccc(-c2ccccc2)cc1)Nc1cc(C2CC2)[nH]n1`
Result: 48
